# Test system: HeLa
# assay.overview: Cytotoxicity against human HeLa cells after 48 hrs by MTT assay
# Type: functional, cell-based
Catalogue of compounds with associated IC50
endpoint.name: IC50 (µM)

1) C=C(C)[C@@]12O[C@@]3(/C=C/C=C/CCCCC)O[C@@H]1[C@@H]1[C@@H]4O[C@]4(CO)[C@@H](O)[C@]4(O)C(=O)C(C)=C[C@H]4[C@@]1(O3)[C@H](C)[C@H]2OC(=O)c1ccccc1: 5.56
2) C=C(C)[C@@]12OC3(c4ccccc4)O[C@@H]1[C@@H]1[C@H](O)[C@](O)(CO)[C@@H](O)[C@]4(O)C(=O)C(C)=C[C@H]4[C@@]1(O3)[C@H](C)[C@H]2OC(=O)c1ccccc1 [YUANHUAOATE B]: 21

---

# Tested on: HeLa
# assay.overview: Cytotoxicity against human HeLa cells after 48 hrs by MTT assay
# Type: functional, cell-based
endpoint.name: IC50

1. C=C(C)[C@]12C[C@@H](C)[C@]34OC5(CCCCCCC[C@@H](C)[C@@H]6[C@@H]3[C@]3(O[C@]6(C)OC3=O)[C@H](O)[C@@]3(CO)O[C@H]3[C@H]4[C@H]1O5)O2: 23.2 µM
2. C=C(C)[C@]12C[C@@H](C)[C@@]34O[C@@]5(CCCCCCC[C@@H](C)[C@H]6[C@H](C)[C@H](O)[C@@](O)([C@H](O)[C@@]7(COC(=O)c8ccccc8)O[C@H]7[C@H]3[C@H]1O5)[C@@H]64)O2: > 50 µM
3. C=C(C)[C@@]1(O)[C@H](OC(=O)/C=C/C=C/CCCCC)[C@@H]2[C@@H]3O[C@]3(CO)[C@@H](O)[C@]3(O)C(=O)C(C)=C[C@H]3[C@@]2(O)[C@H](C)[C@H]1OC(=O)c1ccccc1 [YUANHUAOATE E]: 16.7 µM
4. C=C(C)[C@]12C[C@@H](C)[C@@]34OC(c5ccccc5)(O[C@@H]1[C@@H]3[C@H](O)[C@](O)(COC(=O)/C=C/C=C/CCCCC)[C@@H](O)[C@@]1(O)[C@H]4C[C@H](C)[C@@H]1O)O2: 26.2 µM
5. C=C(C)[C@]12C[C@@H](C)[C@@]34OC5(CCCCCCC[C@@H](C)[C@H]6[C@H](C)[C@H](O)[C@@](O)([C@H](O)[C@@](O)(COC(=O)c7ccccc7)[C@@H](O)[C@H]3[C@H]1O5)[C@@H]64)O2: 25.2 µM
6. O=c1[nH]cc(F)c(=O)[nH]1: 7.34 µM
7. C=C(C)[C@@]12OC3(/C=C/C=C/CCCCC)O[C@@H]1[C@@H]1[C@@H]4O[C@]4(CO)[C@@H](O)[C@]4(O)C(=O)C(C)=C[C@H]4[C@@]1(O3)[C@H](C)[C@H]2OC(=O)C(C)C: > 50 µM
8. C=C(C)[C@@]12OC3(/C=C/C=C\CCCCC)O[C@@H]1[C@@H]1[C@@H]4O[C@]4(CO)[C@@H](O)[C@]4(O)C(=O)C(C)=C[C@H]4[C@@]1(O3)[C@H](C)[C@H]2OC(C)=O: 0.64 µM
9. C=C(C)[C@]12C[C@@H](C)[C@@]34O[C@](CCCCCCCCC)(O[C@@H]1[C@@H]3[C@@H]1O[C@]1(CO)[C@@H](O)[C@]1(O)C(=O)C(C)=C[C@H]14)O2: 21.7 µM
10. C=C(C)[C@]12C[C@@H](C)[C@@]34OC(c5ccccc5)(OC1[C@@H]3[C@@H]1O[C@]1(COC(=O)c1ccccc1)[C@@H](O)[C@@]1(O)[C@H]4C[C@H](C)[C@@H]1O)O2: 20.2 µM
